# Test system: β-galactosidase in CMV-LacZ C2C12 myoblasts
# experimentNotes: CMV-LacZ secondary screen in C2C12 myoblasts (β-Gal stabilizing assay)
# Type: cell-based, mouse
# measurementConditions: 20 uM; CMV-LacZ C2C12 myoblasts
parameter: CMV-LACZ in Myoblasts (β-galactosidase activity relative to DMSO)
Lab note: write the figure by itself, no unit.

Sample answers from the record:
compound="CC(C)(C)NC(=O)NC(=O)CN1CCN(Cc2ccccc2)CC1 [MLS001006302-01]" systemname="β-galactosidase in CMV-LacZ C2C12 myoblasts" valuereported=0.9502
compound="O=C(NCc1ccccc1)C(c1c(F)cccc1Cl)N(C(=O)c1csnn1)C1CC1 (centres unmarked) [MLS001221908-01]" systemname="β-galactosidase in CMV-LacZ C2C12 myoblasts" valuereported=0.9726
compound="Cc1cc([N+](=O)[O-])ccc1NC(=O)C(C)N1CCN(c2ccccn2)CC1 (centres unmarked) [MLS000764729-01]" systemname="β-galactosidase in CMV-LacZ C2C12 myoblasts" valuereported=1.1200
compound="CCN(C(=O)c1ccc(S(=O)(=O)N(C)C)cc1)C(C)C(=O)Nc1ccc(C)cc1 (centres unmarked) [MLS001170856-01]" systemname="β-galactosidase in CMV-LacZ C2C12 myoblasts" valuereported=0.8881
compound="CCNC(=O)C(=O)Nc1cc2c3c(c1)CCN3C(=O)CC2 [MLS001167798-01]" systemname="β-galactosidase in CMV-LacZ C2C12 myoblasts" valuereported=1.2196
compound="CC(C(=O)Nc1ccc(C#N)cc1)N(C)CC(=O)Nc1cccc(F)c1 (centres unmarked) [MLS001033255-01]" systemname="β-galactosidase in CMV-LacZ C2C12 myoblasts" valuereported=1.1919

# CMV-LACZ in Myoblasts (β-galactosidase activity relative to DMSO) lookup, item CNC(=O)CSc1nnc(-c2ccc3c(c2)OCO3)n1C [MLS000717689-01] 1.0407

# CMV-LACZ in Myoblasts (β-galactosidase activity relative to DMSO) lookup, item CC1(C)Cc2c(cnn2-c2cccc(F)c2)C(NC(=O)CCc2cnccn2)C1 (centres unmarked) [MLS001125260-01] 1.0563

# CMV-LACZ in Myoblasts (β-galactosidase activity relative to DMSO) lookup, item OC(c1nc2ccc(F)cc2[nH]1)C(O)c1nc2ccc(F)cc2[nH]1 (centres unmarked) [MLS001182368-01] 1.2322

# CMV-LACZ in Myoblasts (β-galactosidase activity relative to DMSO) lookup, item COc1ccc(N=Nc2ccc(N)nc2N)cc1 [MLS000736846-01] 1.3459

# CMV-LACZ in Myoblasts (β-galactosidase activity relative to DMSO) lookup, item COc1ccccc1C(=O)Nc1ccnn1C1CCN(C(=O)c2ccoc2)CC1 [MLS001083082-01] 0.9615
